- test description: NCI Yeast Anticancer Drug Screen. Data for the sgs1 mgt1 strain (AID 161)
- particulars: S. cerevisiae sgs1 mgt1 strain, at 50.0 µM (retest, dose inferred, filed as 5.0)
Compounds without any hit were thinned out: in the full panel of roughly 79,000, 15% have a hit. Active and inactive are the calls of the source. No stated cut-off is given here; in the data, active means growth inhibition above about 70%; inactive means the rest.
// classify into true = active, false = inactive

Observe how each entry below is paired with its result.
>  <compound>
c1cc[c]([Sn]([S]c2cccc3cccnc23)([c]2ccccc2)[c]2ccccc2)cc1

>  <assigned class>
true

$$$$
>  <compound>
O=[N+]([O-])c1ccccc1C1CN=NN1c1ccccc1 (stereo not drawn)

>  <assigned class>
false

$$$$
>  <compound>
CCCCCCCCCCCCNC(=O)NCC(OCC)OCC

>  <assigned class>
true

$$$$
>  <compound>
CCCCCC(CN(C)C)C(O)/C=C\c1ccccc1 (stereo not drawn)

>  <assigned class>
false

$$$$
>  <compound>
CCOc1c(N=Nc2ccc(Cl)cc2)c(-c2ccccc2)nn1C(N)=S

>  <assigned class>
true

$$$$

Incoming: Hi, do you know how "O=C1c2ccccc2C(=O)c2c1ccc(O)c2O.[Cu]" came out in this test?
Outgoing: true

Incoming: Hi, do you know how COc1nc2nc(SC(CC(=O)O)C(=O)c3ccc(Cl)cc3)[nH]c2c2ccccc12 (stereo not drawn) came out in this test?
Outgoing: false

Incoming: Hi, do you know how "CC(C)(C)C(=O)CC(=O)C(F)(F)C(F)(F)C(F)(F)F.[Ag]" came out in this test?
Outgoing: true

----------
- test description: NCI Yeast Anticancer Drug Screen. Data for the cln2 rad14 strain (AID 165)
- particulars: S. cerevisiae cln2 rad14 strain, at 5.0 µM (retest, dose inferred, filed as 0.5)
About 79,000 compounds went through this panel and 15% of them were active in at least one assay; those are over-represented in the sample as a whole. The source made the active and inactive calls. Cut-off read from the data, not from the text of the source: active = growth inhibition above about 70%; inactive = the rest.
// classify into active, inactive

>  <molecule>
Cc1cc(Cl)ccc1C(=O)c1ccc2ccccc2c1C(=O)O

>  <assigned class>
inactive

$$$$
>  <molecule>
N#CC1=C(N)OC(c2ccccc2)=C(C#N)C1c1ccccc1[N+](=O)[O-] (stereo not given)

>  <assigned class>
inactive

$$$$
>  <molecule>
Cc1nn(C(=O)c2ccccc2O)c2c1C(c1ccco1)SC(N)=N2 (stereo not given)

>  <assigned class>
inactive

$$$$
>  <molecule>
CCOC(=O)/C(=C\c1ccc(Br)cc1)C(C)=O

>  <assigned class>
inactive

$$$$
>  <molecule>
COc1cccc(C2c3cc4c(cc3OC(N3CCCC3)C2c2ccccc2)OCO4)c1O (stereo not given)

>  <assigned class>
inactive

$$$$

Incoming: Hi, do you know how "Cc1cc(N/N=C/c2ccc([N+](=O)[O-])o2)c2cc3c(cc2n1)OCO3" came out in this test?
Outgoing: inactive

Incoming: Hi, do you know how "CC(C)(CN1CCCCC1)C(/C=C/c1ccc(Cl)c(Cl)c1)=N\NC(=O)N/N=C(/C=C/c1ccc(Cl)c(Cl)c1)C(C)(C)CN1CCCCC1" came out in this test?
Outgoing: inactive

Incoming: Hi, do you know how NC(Cc1ccnnc1)C(=O)O (stereo not given) came out in this test?
Outgoing: inactive

Incoming: Hi, do you know how "O=C(C[n+]1ccccc1Cl)c1ccc(F)cc1" came out in this test?
Outgoing: inactive

Incoming: Hi, do you know how "O=C1C(=O)N(c2ccccc2)N=C1N=Nc1ccccc1" came out in this test?
Outgoing: inactive

Incoming: Hi, do you know how "CCOC(=O)c1c(N)c(=O)n2c3c(cccc13)CC2" came out in this test?
Outgoing: inactive

Incoming: Hi, do you know how "BrCc1ccccc1C[P+](c1ccccc1)(c1ccccc1)c1ccccc1" came out in this test?
Outgoing: inactive

Incoming: Hi, do you know how OC(Cc1ccc(Br)cc1)CN1CCC(c2ccccc2)CC1 (stereo not given) came out in this test?
Outgoing: active

Incoming: Hi, do you know how "c1cc(SSc2ccncc2)ccn1" came out in this test?
Outgoing: inactive

Incoming: Hi, do you know how "Clc1ccc(CN2COc3c(cc(Cl)c4cccnc34)C2)cc1" came out in this test?
Outgoing: inactive
